target-of-assay: MAPK14;MAPK11;MAPK12 (human) (UniProt Q16539)
assay-protocol: Inhibition of p38 Kinase Activity
pIC50: −log10 of the molar value.
Entries annotated with measured pIC50

| compound | target-of-assay | result-value |
| --- | --- | --- |
| CCN1CC[C@@H](Nc2nc(Nc3cc(C(=O)NOC)ccc3C)nc(N(C)CC(C)(C)C)n2)C1 | MAPK14;MAPK11;MAPK12 (human) (UniProt Q16539) | > 6.00 |
| CONC(=O)c1ccc(C)c(Oc2nc(NCc3ccccn3)nc(N(C)CC(C)(C)C)n2)c1 | MAPK14;MAPK11;MAPK12 (human) (UniProt Q16539) | > 4.52 |
| CC1(C)[C@H]2CCC(COc3nc(O)nc(Nc4ccc5ncsc5c4)n3)[C@@H]1C2 (stereo partly drawn) | MAPK14;MAPK11;MAPK12 (human) (UniProt Q16539) | > 5.00 |
| Cc1ccc(C(N)=O)cc1Nc1nc(N[C@H]2CCN(Cc3ccc(Cl)c(Cl)c3)C2)nc(N(C)CC(C)C)n1 | MAPK14;MAPK11;MAPK12 (human) (UniProt Q16539) | > 6.00 |
| COC[C@H]1C[C@@H](Nc2nc(Nc3cc(C(N)=O)ccc3C)nc(N(C)CC(C)(C)C)n2)CN1 | MAPK14;MAPK11;MAPK12 (human) (UniProt Q16539) | > 6.00 |
| Cc1ccc(C(N)=O)cc1Nc1nc(NC2CCN(Cc3ccccn3)C2)nc(N(C)CC(C)C)n1 (stereo not drawn) | MAPK14;MAPK11;MAPK12 (human) (UniProt Q16539) | > 6.00 |
| CC1(C)[C@@H]2CC[C@@H](CNc3nc(NC4CCNCC4)nc(N4CCc5ccc([N+](=O)[O-])cc54)n3)[C@H]1C2 | MAPK14;MAPK11;MAPK12 (human) (UniProt Q16539) | > 6.00 |
| Cc1ccc(C(N)=O)cc1Nc1nc(N[C@H]2CCN(C)C2)nc(N(C)CC(C)(C)C)n1 | MAPK14;MAPK11;MAPK12 (human) (UniProt Q16539) | > 6.00 |

Entry under test: Cc1cc2c(cc1Nc1nc(NCC(C)(C)C)nc(N[C@H]3CCNC3)n1)C(=O)NC2 . Its pIC50 was > 6.00

Entry under test: Cc1ccc(C(N)=O)cc1Nc1nc(N[C@@H]2CCN(C(C)CC(C)C)C2)nc(N(C)CC(C)C)n1 (stereo partly drawn) . Its pIC50 was > 6.00
